- target.entity: T1, 4H855-bN
- T1 chain: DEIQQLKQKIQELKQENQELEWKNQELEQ
- test.details: two-hybrid library CCNG1;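 note: natural log of median RNA to DNA barcode read ratio; higher means stronger binding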
Threshold check on interaction score: at or above -0.3 gives YES, strictly below gives NO.

Item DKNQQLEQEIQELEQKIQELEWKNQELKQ [4H3112-bN] with interaction score of -0.3 or above?
YES

Item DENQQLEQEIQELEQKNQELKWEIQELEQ [4H1081-bN] with interaction score of -0.3 or above?
NO

Item DEIQQLEQKIQELKQENQELKWEIQELKQ [4H346-bN] with interaction score of -0.3 or above?
NO

Item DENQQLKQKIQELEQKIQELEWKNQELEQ [4H1831-bN] with interaction score of -0.3 or above?
YES

Item DEIQQLEQKNQELKQEIQELKWEIQELEQ [4H457-bN] with interaction score of -0.3 or above?
NO

Item DEIQQLKQKIQELEQENQELKWKIQELEQ [4H797-bN] with interaction score of -0.3 or above?
YES

The values you see were collected from paper PMC10397247.
